Examples of compounds with documented IC50 follow.
Study Target: RIPK1 (Homo sapiens (Human), UniProt Q13546)
Sequence (Q13546 1-327): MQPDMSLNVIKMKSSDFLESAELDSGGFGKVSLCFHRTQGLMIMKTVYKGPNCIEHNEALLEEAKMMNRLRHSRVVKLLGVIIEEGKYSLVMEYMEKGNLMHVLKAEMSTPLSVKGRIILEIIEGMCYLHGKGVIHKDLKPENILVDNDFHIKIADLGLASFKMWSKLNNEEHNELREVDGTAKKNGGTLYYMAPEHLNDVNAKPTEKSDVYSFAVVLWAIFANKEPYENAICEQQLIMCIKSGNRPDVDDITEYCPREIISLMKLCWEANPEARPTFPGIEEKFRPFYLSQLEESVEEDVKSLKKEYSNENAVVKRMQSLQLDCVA
Give your result in nM as a bare value.

INSERT INTO results (compound, study_target, numeric_result) VALUES
  ('O=C(Nc1cc(C(F)(F)F)cc(Cl)c1F)c1ncn(Cc2ccccc2)n1 [Example 38]', 'RIPK1 (Homo sapiens (Human), UniProt Q13546)', 1300);

Look up IC50: Cc1nc(C(=O)Nc2cccc(Cl)c2F)nn1Cc1cccc(C#N)c1 [Example 34] 472

Look up IC50: O=C(Nc1ccc(Cl)c(Cl)c1F)c1ncn(Cc2ccccc2)n1 [Example 37] 1100
